Each record here notes measured growth.
system: SK-MEL-5 melanoma; test: NCI-60 one-dose screen, 48 h (100 = growth as untreated, 0 = no growth, -100 = all killed); settings: 10 µM unless noted
The panel holds about 83,000 compounds, 20% with a hit somewhere; the sample as a whole holds those more often. Activity calls are given as the source filed them. Rule for the calls: active = growth percent below 10; inactive = the rest.

Previously resolved entries follow.
| COMPOUND | MEASURED VALUE |
| --- | --- |
| NC(=S)N/N=C\c1nccc2c(C(F)(F)F)cccc12 | -41.5% (active) |
| Cc1cccc2c(N)c3ccccc3nc12 | -77.2% (active) |
| CC(C)N=C(N)/N=C(\N)Nc1ccc2ccc3ccccc3c2c1 | -98.1% (active) |
| O=C1/C(=C/c2ccccn2)CCc2ccccc21 | 97.2% (inactive) |
| CCCCCCN(CCCCCC)CCCNc1nccc2ccccc12 | -91.3% (active) |
| COc1ccc2c(c1)c(CC(=O)O)c(C)n2C(=O)c1ccc(Cl)cc1 | 93.6% (inactive) |
| COc1ccc(C(Cn2ccnc2)Sc2ccc(Cl)c(Cl)c2)cc1 (configuration not stated) | 66.5% (inactive) |
| CC1(C)N=c2cc3c(cc2N1c1ccc(Cl)cc1)=Nc1ccccc1N3c1ccc(Cl)cc1 | 37.8% (inactive) |
| CC(=O)c1c(O)c(C)c(O)c2c1OC1=CC(=O)C(C(C)=O)C(=O)C12C (configuration not stated) | 90.9% (inactive) |
| O=C(O)c1cc2c(s1)C(=O)c1sccc1C2=O | -100% (active) |

stdin: Lab note: need growth with SK-MEL-5 melanoma for entry CC1C(c2ccccc2)OCCN1C(=S)Nc1ccc(S(=O)(=O)N2CCCCC2)cc1 (configuration not stated) , please look it up.
stdout: 88.7% (inactive)

stdin: Lab note: need growth with SK-MEL-5 melanoma for entry "c1ccc(-c2cccc(-c3ccccn3)n2)nc1" , please look it up.
stdout: -50.8% (active)
